# Tested Target: human ACE2 (Homo sapiens)
# Construct: purchased Assay Matrix; R&D Systems
# Sequence (Q9BYF1 18-805): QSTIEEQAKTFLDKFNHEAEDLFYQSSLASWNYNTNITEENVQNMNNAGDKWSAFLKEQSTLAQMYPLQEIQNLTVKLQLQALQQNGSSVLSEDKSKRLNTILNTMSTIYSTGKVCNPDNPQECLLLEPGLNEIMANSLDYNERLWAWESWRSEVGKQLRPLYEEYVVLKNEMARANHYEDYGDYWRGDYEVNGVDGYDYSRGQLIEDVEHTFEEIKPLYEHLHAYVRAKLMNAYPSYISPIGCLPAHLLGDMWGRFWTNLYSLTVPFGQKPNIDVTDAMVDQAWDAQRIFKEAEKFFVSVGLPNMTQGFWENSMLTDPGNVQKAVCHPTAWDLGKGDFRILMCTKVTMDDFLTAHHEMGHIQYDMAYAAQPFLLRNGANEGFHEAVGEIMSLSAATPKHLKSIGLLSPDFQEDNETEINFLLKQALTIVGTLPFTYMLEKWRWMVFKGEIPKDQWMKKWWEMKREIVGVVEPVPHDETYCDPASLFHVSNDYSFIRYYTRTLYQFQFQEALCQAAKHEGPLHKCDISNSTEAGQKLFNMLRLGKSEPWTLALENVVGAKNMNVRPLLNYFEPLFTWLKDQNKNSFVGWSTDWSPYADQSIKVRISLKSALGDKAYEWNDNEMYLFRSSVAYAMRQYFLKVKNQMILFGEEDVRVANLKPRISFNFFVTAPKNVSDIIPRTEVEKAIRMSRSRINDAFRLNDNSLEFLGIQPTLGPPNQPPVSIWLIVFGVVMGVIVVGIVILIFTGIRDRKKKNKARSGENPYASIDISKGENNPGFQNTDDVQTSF
# Assay Explanation: biochemical
# Format: binding
# Measurement Setup: immobilized recombinant human ACE2; ± one SD; read-out: KD (nM) determined by SPR
Listing of entries alongside the reported Kd.
Observation Type: Kd (nM)

1) N[C@@H](Cc1ccc(O)c(O)c1)C(=O)O [Levodopa] ... 13.6
2) CC#CC(=O)N1CCC[C@H]1c1nc(-c2ccc(C(=O)Nc3ccccn3)cc2)c2c(N)nccn12 [Acalabrutinib] ... 25.7
3) CO[C@H]1C[C@@H]2CC[C@@H](C)[C@@](O)(O2)C(=O)C(=O)N2CCCC[C@H]2C(=O)O[C@H]([C@H](C)C[C@@H]2CC[C@H](n3cnnn3)[C@H](OC)C2)CC(=O)[C@H](C)/C=C(\C)[C@@H](O)[C@@H](OC)C(=O)[C@H](C)C[C@H](C)/C=C/C=C/C=C/1C [Zotarolimus] ... 2760

---

Here's what we have: pKd numbers for SARS-CoV-2 spike protein (Severe acute respiratory syndrome coronavirus 2, UniProt P0DTC2).
pKd: −log10 of the molar value.
Observation Type: pKd

1. Cc1cc(O)c(C(=O)N[C@@H](C(=O)N[C@@H]2C(=O)N3C(C(=O)O)=C(CSc4nnnn4C)CS[C@H]23)c2ccc(O)cc2)cn1 [Cefpiramide] ... 6.48
2. Cc1ccc(NC(=O)C2(c3ccc4c(c3)OC(F)(F)O4)CC2)nc1-c1cccc(C(=O)O)c1 ... 5.82
3. CS(=O)(=O)c1cccc(C[C@H](NC(=O)c2c(Cl)cc3c(c2Cl)CCN(C(=O)c2ccc4ccoc4c2)C3)C(=O)O)c1 [Sodium lifitegrast] ... 8.72

---

Listing of recorded 1:1 Competition between compound vs CoV2 VLP by entry.
# Tested Target: human ACE2-VLP spike protein interaction (UniProt P0DTC2+Q9BYF1); also: test concentration or dose not given here
# Sequence (Q9BYF1 18-740, one chain of several): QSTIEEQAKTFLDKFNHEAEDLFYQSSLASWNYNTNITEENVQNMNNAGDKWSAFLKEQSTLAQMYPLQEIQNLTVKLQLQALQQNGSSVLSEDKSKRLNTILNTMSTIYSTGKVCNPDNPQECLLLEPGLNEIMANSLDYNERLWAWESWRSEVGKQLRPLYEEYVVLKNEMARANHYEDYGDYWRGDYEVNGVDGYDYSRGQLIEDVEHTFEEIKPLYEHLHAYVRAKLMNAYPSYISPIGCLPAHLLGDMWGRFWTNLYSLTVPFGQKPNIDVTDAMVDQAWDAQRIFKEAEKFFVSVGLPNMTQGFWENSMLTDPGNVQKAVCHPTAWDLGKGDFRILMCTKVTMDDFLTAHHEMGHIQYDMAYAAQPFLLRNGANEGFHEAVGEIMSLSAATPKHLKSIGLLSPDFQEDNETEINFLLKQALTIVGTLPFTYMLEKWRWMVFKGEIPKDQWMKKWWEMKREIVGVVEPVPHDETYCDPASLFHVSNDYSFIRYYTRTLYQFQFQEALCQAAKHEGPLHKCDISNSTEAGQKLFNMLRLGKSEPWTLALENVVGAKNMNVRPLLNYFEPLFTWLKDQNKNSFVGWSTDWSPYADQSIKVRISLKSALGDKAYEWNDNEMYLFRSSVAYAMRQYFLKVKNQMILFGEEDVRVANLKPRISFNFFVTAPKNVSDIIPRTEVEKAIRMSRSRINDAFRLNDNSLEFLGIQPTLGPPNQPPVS
# Assay type: binding, SARS-CoV-2
Observation Type: 1:1 Competition between compound vs CoV2 VLP

1. C[C@H]1O[C@@H](O[C@H]2[C@@H](O)C[C@H](O[C@H]3[C@@H](O)C[C@H](O[C@H]4CC[C@@]5(C)[C@H](CC[C@@H]6[C@@H]5C[C@@H](O)[C@]5(C)[C@@H](C7=CC(=O)OC7)CC[C@]65O)C4)O[C@@H]3C)O[C@@H]2C)C[C@H](O)[C@@H]1O [Digoxin] ... 31.5% ± 4.55
2. N[C@@H](Cc1ccc(O)c(O)c1)C(=O)O [Levodopa] ... 42.1% ± 5.17
3. Cc1cc(-c2ccc(/N=N/c3ccc4c(S(=O)(=O)O)cc(S(=O)(=O)O)c(N)c4c3O)c(C)c2)ccc1/N=N/c1ccc2c(S(=O)(=O)O)cc(S(=O)(=O)O)c(N)c2c1O [Evans blue] ... 98.9% ± 6.43
4. CC1(C)CCC(CN2CCN(c3ccc(C(=O)NS(=O)(=O)c4ccc(NCC5CCOCC5)c([N+](=O)[O-])c4)c(Oc4cnc5[nH]ccc5c4)c3)CC2)=C(c2ccc(Cl)cc2)C1 [Venetoclax] ... 69.1% ± 7.31
5. COc1cc(-c2ccc(/N=N/c3ccc4c(S(=O)(=O)O)cc(S(=O)(=O)O)c(N)c4c3O)c(OC)c2)ccc1/N=N/c1ccc2c(S(=O)(=O)O)cc(S(=O)(=O)O)c(N)c2c1O [Chicago sky blue] ... 7.29% ± 1.64
6. CC#CC(=O)N1CCC[C@H]1c1nc(-c2ccc(C(=O)Nc3ccccn3)cc2)c2c(N)nccn12 [Acalabrutinib] ... 81.2% ± 12.9
7. CCc1c2c(nc3ccc(OC(=O)N4CCC(N5CCCCC5)CC4)cc13)-c1cc3c(c(=O)n1C2)COC(=O)[C@]3(O)CC [Irinotecan] ... 100% ± 9.17

Entry source: paper PMC8092326
